Test system: MDA-MB-231
Assay: Antiproliferative activity against human MDA-MB-231 cells after 48 hrs by CCK8 assay
Assay type: functional, cell-based
Details: MDA-MB-231, 48 h
experimental readout: IC50 (µM)

smiles data	experimental readout	result unit	observed result
Cc1cc(Nc2nc(-c3ccccc3)nc3cc(F)ccc23)n[nH]1	IC50	µM	11.2

(1) CN1CCN(c2ccc3c(Nc4cc[nH]n4)nc(-c4ccccc4)nc3c2)CC1
(2) COc1cccc2c(Nc3cc(C)[nH]n3)nc(Cc3ccccc3)nc12
Could you determine which record has the numerically smaller IC50? Candidates: 1 and 2 // return label of chosen record
2

(P) CCOC(=O)C1CCN(c2ccc3c(Nc4cc(C)[nH]n4)nc(-c4ccccc4)nc3c2)CC1
(Q) Cc1cc(Nc2nc(-c3ccccc3)nc3c([N+](=O)[O-])cccc23)n[nH]1
Quick check, higher IC50 between P and Q ? // return label of chosen record
Q

###

Target: Aurora kinase B (Homo sapiens, UniProt Q96GD4)
Sequence (Q96GD4 whole entry): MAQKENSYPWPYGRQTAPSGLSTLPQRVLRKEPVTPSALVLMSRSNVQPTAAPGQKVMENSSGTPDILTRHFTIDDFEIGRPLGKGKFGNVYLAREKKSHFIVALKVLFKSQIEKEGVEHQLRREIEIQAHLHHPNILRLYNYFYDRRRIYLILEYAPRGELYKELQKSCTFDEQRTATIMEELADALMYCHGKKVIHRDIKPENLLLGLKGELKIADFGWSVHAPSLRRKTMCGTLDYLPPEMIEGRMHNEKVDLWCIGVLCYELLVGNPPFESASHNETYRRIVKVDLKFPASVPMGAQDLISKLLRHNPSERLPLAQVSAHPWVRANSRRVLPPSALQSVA
pIC50: −log10 of the molar value.
experimental readout: pIC50

(a) COc1cccc2c(Nc3cc(C)[nH]n3)nc(-c3ccccc3)nc12
(b) CN1CCN(c2ccc3c(Nc4cc[nH]n4)nc(-c4ccccc4)nc3c2)CC1
(c) Cc1cc(Nc2nc(C(C)C)nc3ccccc23)n[nH]1
Sort entries by pIC50 from minimum to maximum value. A complete answer lists every label in the requested sequence.
b, c, a
(b: 4.84, c: 5.94, a: 6.26)

###

System: MCF7
Assay: Antiproliferative activity against human MCF7 cells after 48 hrs by CCK8 assay
Assay type: functional, cell-based
Conditions: Homo sapiens, MCF7, 48 h; read-out: IC50
pIC50: −log10 of the molar value.
experimental readout: pIC50

(I) COc1ccc2c(Nc3cc(C)[nH]n3)nc(-c3ccccc3)nc2c1
(II) Cc1cc(Nc2nc(C(C)C)nc3ccccc23)n[nH]1
(III) Cc1cc(Nc2nc(-c3ccccc3)nc3cc(N4CCN(C)CC4)ccc23)n[nH]1
(IV) Cc1cc(Nc2nc(-c3ccccc3)nc3cc(N4CCC(C(=O)O)CC4)ccc23)n[nH]1
Sort entries by pIC50 from minimum to maximum value. A complete answer lists every label in the requested sequence.
II, IV, I, III

###

Test system: DU-145
Test: Antiproliferative activity against human DU145 cells after 48 hrs by CCK8 assay
Assay type: functional, cell-based
Conditions: DU-145, 48 h
pIC50: −log10 of the molar value.
experimental readout: pIC50

Before answering, review these 5 worked examples.
smiles data	pIC50
Cc1cc(Nc2nc(-c3ccccc3)nc3cc(N4CCN(C)CC4)ccc23)n[nH]1	6.39
Cc1cc(Nc2nc(-c3ccc4ccccc4c3)nc3ccccc23)n[nH]1	4.98
Cc1cc(Nc2nc(-c3ccccc3)nc3ccccc23)n[nH]1	5.10
COc1ccc2c(Nc3cc(C)[nH]n3)nc(-c3ccccc3)nc2c1	5.33
Cc1ccc(C(=O)c2nc(Nc3cc(C)[nH]n3)c3ccc(Cl)cc3n2)cc1	4.80

(A) CCOC(=O)C1CCN(c2ccc3c(Nc4cc(C)[nH]n4)nc(-c4ccccc4)nc3c2)CC1
(B) Cc1cc(Nc2nc(-c3ccccc3)nc3cc([N+](=O)[O-])ccc23)n[nH]1
(C) COc1ccc(C(=O)c2nc(Nc3cc(C)[nH]n3)c3ccc(Cl)cc3n2)cc1
(D) COc1cccc(OC)c1C(=O)c1nc(Nc2cc(C)[nH]n2)c2ccc(N3CCC(C(=O)OC(C)(C)C)CC3)cc2n1
(E) Cc1cc(Nc2nc(-c3ccccc3)nc3cc(N4CCC(C(=O)O)CC4)ccc23)n[nH]1
Given 5 molecules, produce a descending ranking by pIC50. A complete answer lists every label in the requested sequence.
A, D, B, C, E
(A: 5.69, D: 5.44, B: 5.13, C: 4.90, E: 4.67)
